Origin of the recorded values: patent US20080064681A1

Listed below: pIC50 values for each entry.
Molecular target: recombinant ROCK II (1-602) (Homo sapiens, UniProt O75116)
Sequence (O75116 1-602): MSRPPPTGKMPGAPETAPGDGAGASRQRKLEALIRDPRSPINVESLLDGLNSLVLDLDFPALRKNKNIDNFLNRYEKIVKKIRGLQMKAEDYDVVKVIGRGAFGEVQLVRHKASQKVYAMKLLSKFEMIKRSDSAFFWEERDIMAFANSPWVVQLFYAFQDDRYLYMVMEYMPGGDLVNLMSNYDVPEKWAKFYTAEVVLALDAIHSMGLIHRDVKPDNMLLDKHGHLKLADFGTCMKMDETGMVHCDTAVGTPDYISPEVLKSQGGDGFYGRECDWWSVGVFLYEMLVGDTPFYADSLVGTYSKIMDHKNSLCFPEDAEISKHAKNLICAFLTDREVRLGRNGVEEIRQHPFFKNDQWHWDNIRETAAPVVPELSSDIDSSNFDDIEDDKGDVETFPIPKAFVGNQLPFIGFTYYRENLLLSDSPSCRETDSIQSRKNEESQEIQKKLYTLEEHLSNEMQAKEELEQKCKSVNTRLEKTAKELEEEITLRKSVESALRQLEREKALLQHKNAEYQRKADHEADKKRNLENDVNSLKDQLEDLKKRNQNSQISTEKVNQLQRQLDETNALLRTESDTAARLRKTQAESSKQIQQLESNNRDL
Test: Rho-kinase assay (phosphate incorporation, [γ-32P]ATP, RSK peptide)
Conditions: 10 nM ROCK II, 10 μM ATP, 30° C., 10 minutes
Counter-ions that a name gives are not always drawn.
Scale explanation: pIC50 corresponds to minus log10 of a concentration expressed in moles per litre.

Here are 3 compounds together with their reported answers.
>>> endpoint_result("C[C@H]1CNCCCCN1S(=O)(=O)c1cccc2cncc(Br)c12 [Compound B8, dihydrochloride]")
7.31
>>> endpoint_result("C[C@H]1CNCCCN1S(=O)(=O)c1cccc2cncc(Br)c12 [Compound B7, dihydrochloride]")
7.55
>>> endpoint_result("C[C@H]1CN(C(=O)CN)CCCN1S(=O)(=O)c1cccc2cncc(F)c12.Cl.Cl [Reference Compound, dihydrochloride, reference compound]")
7.27

# pIC50 of C[C@H]1CNCCCN1S(=O)(=O)c1cccc2cncc(Cl)c12 [Compound C7, dihydrochloride] = 7.59

According to the records, this compound C[C@H]1CNCCN1S(=O)(=O)c1cccc2cncc(Br)c12 [Compound B6, dihydrochloride] displays pIC50 of 6.20

Query C[C@H]1CNCCCCN1S(=O)(=O)c1cccc2cncc(F)c12 [Compound F8, dihydrochloride] yields pIC50 of 7.41

Recorded pIC50 (compound C#Cc1cncc2cccc(S(=O)(=O)N3CCCNC[C@@H]3C)c12.Cl.Cl [M, dihydrochloride, reference compound] ): 7.71

Measured pIC50, C[C@H]1CNCCCCN1S(=O)(=O)c1cccc2cncc(Cl)c12 [Compound C8, dihydrochloride] : 7.68

Briefly, pIC50 measured for C[C@H]1CNCCCN1S(=O)(=O)c1cccc2cncc(F)c12 [Compound F7, dihydrochloride] : 7.07
